Test system: Escherichia coli Nissle 1917
Assay: area under OmniLog respiration curve over 48 h (OmniLog units x h); higher = more growth / nutrient utilisation; extreme values may be limits of the assay
Details: nutrient role: sole sulfur source (pyruvate carbon); incubation: 48 h, 37 °C
Kindly return true (1) if reported area under OmniLog respiration curve is no lower than 6000; return false (0) if it is lower.

Answered examples (3):
smiles_str=CSCC[C@H](N)C(=O)O classification="true (1)"
smiles_str=CSCC[C@@H](N)C(=O)O classification="false (0)"
smiles_str=NCCS(=O)(=O)O classification="true (1)"

Input line: Could you verify whether the entry `N[C@H](CS)C(=O)O` shows area under OmniLog respiration curve of no less than 6000?
Output line: true (1)

Input line: Could you verify whether the entry `CSC[C@H](N)C(=O)O` shows area under OmniLog respiration curve of no less than 6000?
Output line: false (0)

Input line: Could you verify whether the entry `N[C@@H](CCC(=O)N[C@@H](CS)C(=O)NCC(=O)O)C(=O)O` shows area under OmniLog respiration curve of no less than 6000?
Output line: false (0)

Input line: Could you verify whether the entry `NCCS(=O)O` shows area under OmniLog respiration curve of no less than 6000?
Output line: true (1)

---

Tested on: Escherichia coli Nissle 1917
Experiment: DuctApe activity index of respiration/growth curve (0 no growth to 9 maximum) (index 0-9); higher = more growth / nutrient utilisation, active = 3 or more; extreme values may be limits of the assay
Conditions: nutrient role: C-Source, carbohydrate; incubation: 48 h, 37 °C
Measured quantity: DuctApe activity index
Please give the numeric answer without any surrounding text.

These recorded examples may help you get a feel for the data.
molecule="OC[C@H]1OC(O)[C@@H](O)[C@@H](O)[C@@H]1O (stereo partly drawn) [D-Mannose]" measured_quantity="DuctApe activity index" measured_value=8
molecule="OC[C@@H](O)[C@@H](O)[C@H](O)[C@H](O)CO [D-Mannitol]" measured_quantity="DuctApe activity index" measured_value=7.67
molecule="OC[C@H]1O[C@H](O[C@H]2[C@H](O)[C@@H](O)[C@H](O)O[C@@H]2CO)[C@H](O)[C@@H](O)[C@@H]1O [Maltose]" measured_quantity="DuctApe activity index" measured_value=7.67
molecule="OC[C@H]1O[C@H](O[C@H]2[C@H](O)[C@@H](O)[C@@H](O[C@H]3[C@H](O)[C@@H](O)C(O)O[C@@H]3CO)O[C@@H]2CO)[C@H](O)[C@@H](O)[C@@H]1O (mixture of isomers) [Maltotriose]" measured_quantity="DuctApe activity index" measured_value=8
molecule="CC(=O)N[C@H]1C(O)O[C@H](CO)[C@H](O)[C@@H]1O (stereo partly drawn) [N-Acetyl-D-Galactosamine]" measured_quantity="DuctApe activity index" measured_value=8

Input line: Please report DuctApe activity index for the following molecule: OC[C@@H](O)[C@@H](O[C@H]1O[C@H](CO)[C@@H](O)[C@H](O)[C@H]1O)[C@H](O)[C@@H](O)CO [Maltitol]
Output line: 0

Input line: Please report DuctApe activity index for the following molecule: OC1OC[C@@H](O)[C@H](O)[C@H]1O (stereo partly drawn) [D-Xylose]
Output line: 8.67

---

System: Escherichia coli Nissle 1917
Assay: DuctApe activity index of respiration/growth curve (0 no growth to 9 maximum) (index 0-9); higher = more growth / nutrient utilisation, active = 3 or more; extreme values may be limits of the assay
Details: nutrient role: C-Source, amino acid; incubation: 48 h, 37 °C
Listing: DuctApe activity index of selected compounds
Please give the numeric answer without any surrounding text.

These recorded examples may help you get a feel for the data.
compound="N[C@@H](Cc1c[nH]cn1)C(=O)O [L-Histidine]" measured_value=0
compound="C[C@H](N)C(=O)O [L-Alanine]" measured_value=8
compound=C[C@H](N)C(=O)NCC(=O)O measured_value=7.67

Input line: Please report DuctApe activity index for the following compound: N[C@H](CO)C(=O)O [D-Serine]
Output line: 8.67

Input line: Please report DuctApe activity index for the following compound: CC(=O)N[C@@H](CCC(=O)O)C(=O)O [N-Acetyl-L-Glutamic acid]
Output line: 0

Input line: Please report DuctApe activity index for the following compound: N[C@@H](CO)C(=O)O [L-Serine]
Output line: 8.67

Input line: Please report DuctApe activity index for the following compound: `NCC(=O)N[C@@H](CC(=O)O)C(=O)O`
Output line: 8.67

Input line: Please report DuctApe activity index for the following compound: CC(C)[C@H](N)C(=O)O [L-Valine]
Output line: 0

---

Test system: Escherichia coli Nissle 1917
Assay: area under OmniLog respiration curve over 48 h (OmniLog units x h); higher = more growth / nutrient utilisation; extreme values may be limits of the assay
Conditions: nutrient role: sole sulfur source (pyruvate carbon); incubation: 48 h, 37 °C
Please assign a class to every record based on measured area under OmniLog respiration curve, with ranges low (below 5000), moderate (5000 to below 7000), high (7000 or more)

Answered examples (5):
compound="N[C@@H](CS(=O)(=O)O)C(=O)O [L-Cysteic acid]" classification=moderate
compound="O=S(=O)(O)CCO [2-Hydroxyethane Sulfonic acid]" classification=high
compound="C[C@H](CCC(=O)NCCS(=O)(=O)O)[C@H]1CC[C@H]2[C@@H]3[C@H](O)C[C@@H]4C[C@H](O)CC[C@]4(C)[C@H]3C[C@H](O)[C@]12C [Taurocholic acid]" classification=low
compound="CS(=O)(=O)CC[C@H](N)C(=O)O [L-Methionine Sulfone]" classification=low
compound="C[S+]([O-])CC[C@H](N)C(=O)O (stereo partly drawn) [L-Methionine Sulfoxide]" classification=moderate

Input line: Exercise: read the entry CCCCS(=O)(=O)O [Butane Sulfonic acid] and state which class it falls under.
Output line: high

Input line: Exercise: read the entry Nc1ccc(S(=O)(=O)O)cc1 [p-Aminobenzene Sulfonic acid] and state which class it falls under.
Output line: low

Input line: Exercise: read the entry N[C@@H](CS)C(=O)O [L-Cysteine] and state which class it falls under.
Output line: high

---

System: Escherichia coli Nissle 1917
Assay: DuctApe activity index of respiration/growth curve (0 no growth to 9 maximum) (index 0-9); higher = more growth / nutrient utilisation, active = 3 or more; extreme values may be limits of the assay
Details: nutrient role: C-Source, carboxylic acid; incubation: 48 h, 37 °C
Measured quantity: DuctApe activity index
Please give the numeric answer without any surrounding text.

molecule="O=C(O)CCCCCCCCC(=O)O [Sebacic acid]" measured_quantity="DuctApe activity index" measured_value=0

Input line: Param request: DuctApe activity index | system Escherichia coli Nissle 1917 | item C/C=C/C=C/C(=O)O [Sorbic acid]
Output line: 0

Input line: Param request: DuctApe activity index | system Escherichia coli Nissle 1917 | item O=C(O)c1ccc(O)cc1 [4-Hydroxybenzoic acid]
Output line: 0

Input line: Param request: DuctApe activity index | system Escherichia coli Nissle 1917 | item O=CC(=O)O [Glyoxylic acid]
Output line: 7

Input line: Param request: DuctApe activity index | system Escherichia coli Nissle 1917 | item O=C(O)CC(=O)O [Malonic acid]
Output line: 0

Input line: Param request: DuctApe activity index | system Escherichia coli Nissle 1917 | item CC(=O)C(=O)O [Pyruvic acid]
Output line: 9

---

Test system: Escherichia coli Nissle 1917
Experiment: DuctApe activity index of respiration/growth curve (0 no growth to 9 maximum) (index 0-9); higher = more growth / nutrient utilisation, active = 3 or more; extreme values may be limits of the assay
Conditions: nutrient role: C-Source, carboxylic acid; incubation: 48 h, 37 °C
Mark one answer only. Choices: yes (active), no (inactive)

Answered examples (5):
compound=O=C(O)C(=O)O tested_on="Escherichia coli Nissle 1917" classification=no
compound=CO[C@@H]1O[C@H](C(=O)O)[C@@H](O)[C@H](O)[C@H]1O tested_on="Escherichia coli Nissle 1917" classification=yes
compound=CCC(=O)O tested_on="Escherichia coli Nissle 1917" classification=yes
compound=O=C(CO)[C@@H](O)[C@H](O)[C@@H](O)C(=O)O tested_on="Escherichia coli Nissle 1917" classification=no
compound=NC(=O)CCC(=O)O tested_on="Escherichia coli Nissle 1917" classification=no

Input line: I'd appreciate the recorded outcome for O=C(O)C(O)C(O)C(=O)O (stereo not given) from this test.
Output line: no

Input line: I'd appreciate the recorded outcome for O=C(O)Cc1cccc(O)c1 [m-Hydroxyphenyl Acetic acid] from this test.
Output line: no

Input line: I'd appreciate the recorded outcome for `O=C(O)CCC(=O)C(=O)O` from this test.
Output line: yes

Input line: I'd appreciate the recorded outcome for `C/C(=C/C(=O)O)C(=O)O` from this test.
Output line: no

Input line: I'd appreciate the recorded outcome for `N[C@@H](C(=O)O)[C@@H](O)[C@H](O)[C@H](O)CO` from this test.
Output line: no

---

Test system: Escherichia coli Nissle 1917
Experiment: DuctApe activity index of respiration/growth curve (0 no growth to 9 maximum) (index 0-9); higher = more growth / nutrient utilisation, active = 3 or more; extreme values may be limits of the assay
Details: nutrient role: C-Source, carboxylic acid; incubation: 48 h, 37 °C
Mark one answer only. Choices: 1 (active), 0 (inactive)

Answered examples (5):
compound="O=C1O[C@H](CO)[C@@H](O)[C@H]1O [D-Ribono-1,4-Lactone]" classification=0
compound="CC(=O)N[C@H]1[C@H]([C@H](O)[C@H](O)CO)OC(O)(C(=O)O)C[C@@H]1O (some centres not stated) [N-Acetyl-Neuraminic acid]" classification=1
compound="CC(O)(CC(=O)O)C(=O)O (configuration not stated) [Citramalic acid]" classification=0
compound="CC[C@H](O)C(=O)O [a-Hydroxybutyric acid]" classification=1
compound="O=C(O)CCC(=O)O [Succinic acid]" classification=1

Input line: I'd appreciate the recorded outcome for CCCCCC(=O)O [Caproic acid] from this test.
Output line: 0

Input line: I'd appreciate the recorded outcome for CC(=O)CC(=O)O [Acetoacetic acid] from this test.
Output line: 0
